System: transactivating tegument protein VP16 (Human herpesvirus 1), Gal4-VP16 luciferase reporter
test protocol: VP16 transactivation inhibitors, counter-screen for SRC3 inhibitor project, cell-based, luminescence, high throughput (AID 588794)
measurement context: mammalian cells, VP16-driven luciferase reporter luminescence; at 3.6 µM
Active and inactive are the calls of the source. Cut-off read from the data, not from the text of the source: active = inhibition above about 30%; inactive = the rest.
Outcome codes: T = active, F = inactive

compound	qualitative label
COc1ccc(-c2nsc3c(N4CCCCC4C)ncnc23)cc1 (stereo unspecified)	T
CCOC(=O)NNC(=O)CCn1c2c(c3ccccc31)CCCC2	T
O=C(CCCN1C(=O)S/C(=C\c2ccccc2)C1=O)NNC(=O)c1ccccc1O	T
CCCCCCCC[n+]1cccc2c3ccccc3ccc21	T
NS(=O)(=O)c1ccc(Sc2nc3ccccc3s2)c([N+](=O)[O-])c1	F
OCCCNc1cc(-c2ccnc(Nc3cccc(Cl)c3)n2)ccn1	T

====

test protocol: StAR promoter reporter inhibitors, counter-screen for LRH-1 inverse agonist project, cell-based, luminescence, high throughput (AID 651611)
measurement context: StAR promoter luciferase reporter counterscreen, at 3.6 µM
The source made the active and inactive calls. Cut-off read from the data, not from the text of the source: active = inhibition above about 28%; inactive = the rest.
Outcome codes: active, inactive

compound	qualitative label
C[C@@H]1CN([C@@H](C)CO)S(=O)(=O)c2ccc(-c3ccc(C#N)cc3)cc2O[C@@H]1CN(C)Cc1ccccn1	inactive
O=C(O)CSCC(=O)Nc1ccc(C2CCCCC2)cc1	active
O=C(CSc1nc(=O)n2cc(Cl)ccc2n1)Nc1ccc2c(c1)OCCO2	inactive
Cc1ccc(S(=O)(=O)NCc2ccncc2)c(C)c1C	inactive
CC(=O)Nc1sc2c(c1-c1nc3ccccc3s1)CN(C(C)C)CC2	active
Cc1nn(-c2ccccc2)c(C)c1NC(=O)CCl	active
CCc1cc(=O)oc2c(C)c(OCC(=O)NCCN3CCOCC3)ccc12	inactive
Cc1ccc(-c2nn3c(C)nnc3s2)cc1NC(=O)c1cccs1	inactive
COc1ccc(NC(=O)C2Cc3c(-c4ccc5c(c4)OCO5)ccnc3O2)cc1OC (stereo not given)	active
O=C(CN1CCN(c2ncccn2)CC1)N1CCCc2c1c(=O)oc1ccc(O)cc21	inactive

====

study system: Protein phosphatase methylesterase 1 (Homo sapiens)
test protocol: PME-1 inhibitor activity retest, confirmation, biochemical, fluorescence polarization, FP-Rh probe, triplicate (AID 2171);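 note: 0% = enzyme with DMSO and 100% = wells lacking PME-1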
measurement context: recombinant PME-1, FP-Rh probe fluorescence polarization; at 5.9 µM; stronger effect = higher value
measured metric: inhibition (%)

compound	measurement unit	quantitative result
O=C(N=Nc1c(O)n(Cc2ccccc2)c2ccccc12)c1cc2ccccc2cc1O	%	54.8
CCCn1nc([N+](=O)[O-])c(C(C#N)c2nc3ccccc3s2)c(Cl)c1=O (stereo not given)	%	28.7
COc1cc(OC)cc(-c2nnc(Nc3nc4c(F)cccc4s3)o2)c1	%	56.2
COC(=O)/C(=C(O)\C=C\c1ccccc1[N+](=O)[O-])c1nc2ccccc2[nH]1	%	21.9
O=C(O)c1ccccc1-c1ccccc1C(=O)Nc1ccc(-c2nc3cc(Cl)ccc3o2)cc1	%	22.2

====

test protocol: VP16 transactivation reporter inhibitors, counter-screen for LRH-1 inverse agonist project, cell-based, luminescence, high throughput (AID 651615)
measurement context: Gal4-VP16 luciferase reporter cells, at 3.6 µM
The source made the active and inactive calls. Cut-off read from the data, not from the text of the source: active = inhibition above about 33%; inactive = the rest.
Outcome codes: active, inactive

compound	qualitative label
Cc1ccc(C(=O)Nc2sc3c(c2C(=O)O)CCCCC3)o1	active
CC(Cl)C(=O)Nc1ncc(C(F)(F)F)cc1Cl (stereo not drawn)	inactive
O=C(Nc1cc(C(F)(F)F)ccc1-n1cncn1)c1ccc([N+](=O)[O-])o1	inactive
CC(C)C(=O)NC(c1ccc(Cl)cc1Cl)c1ccc2cccnc2c1O (stereo not drawn)	active
Nc1cc(Cc2ccccc2)ccc1O	inactive
COc1ccccc1C(=O)N(CCC1CCCN1C)c1nc2ccccc2s1 (stereo not drawn)	inactive
NC1=C(Cl)C(=O)c2ccc(S(N)(=O)=O)cc2C1=O	active
Cc1ccc(NC(=O)CN2C(=O)NC(C)(CC(C)C)C2=O)c(Br)c1 (stereo not drawn)	inactive
COc1cc2c(cc1OC)C(C1C(=O)CC(C)CC1=O)N(C(=O)CCl)CC2 (stereo not drawn)	inactive
COc1cc2cc(C(=O)NC(C)c3cccc4ccccc34)c(N)nc2cc1OC (stereo not drawn)	inactive
Clc1ccc(OCCN2CCN(c3ncnc4sccc34)CC2)cc1	active
Cc1ccccc1-c1nnc(SCC(=O)Nc2cccc(C)c2C)o1	inactive
CCOc1ccc(NC(=O)CSc2nccn(-c3ccc4c(c3)OCCO4)c2=O)cc1	inactive
Cn1c(=O)c2cc(NC(=O)CCc3ccc(O)cc3)ccc2n1Cc1cccc(C(F)(F)F)c1	active
Cc1cc(OCC(=O)Nc2ccc(OCc3ccccc3)cc2)nc(C(C)C)n1	inactive
COc1cc(N)c2ncccc2c1Br	inactive
CNc1cccnc1C=NNC(N)=S	inactive
O=C(N/N=C/c1c(O)ccc2ccccc12)c1cccnc1	active
CCc1cc(=O)oc2cc(C)cc(OCC(=O)NC3CC3)c12	inactive
c1ccc(-c2csc3ncnc(NCC4COc5ccccc5O4)c23)cc1 (stereo not drawn)	active
CC1CCCC(C)N1C(=O)COC(=O)CCC1CCCC1 (stereo not drawn)	inactive
Cc1ccc(-n2c(SCC(=O)NCc3ccco3)nc3sc4c(c3c2=O)CC(C)(C)SC4)cc1	inactive
O=C(COC(=O)c1ccc[n+]([O-])c1)Nc1ccc([N+](=O)[O-])cc1Cl	inactive
